src = PubChem BioAssay (NCI)

Assay: NCI Yeast Anticancer Drug Screen. Data for the cln2 rad14 strain (AID 165);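 note: 0% = growth equal to vehicle treated cultures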
Conditions: S. cerevisiae cln2 rad14 strain, at 50.0 µM, stronger effect = higher value
Method: Growth inhibition of yeast strains with defined genetic alterations is measured as a screen for potential anti-cancer activity. Selected strains with alterations in DNA damage repair or cell cycle control were exposed to compounds and growth inhibition was measured relative to vehicle treated controls. The strain used in this assay is cln2 rad14
About 79,000 compounds went through this panel and 15% of them were active in at least one assay; those are over-represented in the sample as a whole.
property measured: growth inhibition (%)
Enter your answer as a number in %; do not include the unit.

For reference, reported growth inhibition for COc1ccc(C(=O)N2CCCCC2)cc1 stands at -26.6

For reference, reported growth inhibition for Nc1cc(Cl)nc(Cl)n1 stands at 10.1

For reference, reported growth inhibition for CCCCCCCCCC1OC(C)C(C)O1 (stereo not given) stands at -19.1

For reference, reported growth inhibition for CCCCCCCC/C(C=O)=C\c1ccc(C)cc1 stands at 51.7

For reference, reported growth inhibition for O=c1c2cc3c(=O)n(O)c(=O)c3cc2c(=O)n1O stands at 6.75

For reference, reported growth inhibition for Cc1cc(C)n(C2=NCCN2)n1 stands at -33.2

For reference, reported growth inhibition for Cc1ccc(NC=O)cc1NC=O stands at -27.1

For reference, reported growth inhibition for O=S(=O)(c1cnccc1N1CCN(CCO)CC1)N1CCCC1 stands at -7.6

For reference, reported growth inhibition for Nc1nc(/C=C(/O)c2ccccc2)c2ncn(C3OC(CO)C(O)C3O)c2n1 (stereo not given) stands at -4.7

For reference, reported growth inhibition for O=C(O)c1[nH]c(=O)[nH]c(=O)c1Br stands at -40.5

For reference, reported growth inhibition for COc1cc([N+](=O)[O-])ccc1NC(=O)c1cccc([N+](=O)[O-])c1C(=O)O stands at -9.5

For reference, reported growth inhibition for Cc1cnc2[nH]c(-c3cccc4ccccc34)cc(=O)c2c1 stands at -6.6

For reference, reported growth inhibition for C=C1C(=O)OC2CC(C)C(C(CC(C)=O)OC(C)=O)=CCC12 (stereo not given) stands at 6.8

For reference, reported growth inhibition for CCC(C)N(C(=O)C(C)Br)C(C)CC (stereo not given) stands at -39.2

For reference, reported growth inhibition for CC(C)=CCSC(N)N stands at 9.35

For reference, reported growth inhibition for CCOC(=O)Cc1ccc2c(c1)sc1nc(-c3ccc(OC)cc3)cn12 stands at 32.3

For reference, reported growth inhibition for CCCCCCCCCCCCCCOc1ccc(S(=O)(=O)/N=C(\N)NC(N)=NCCCCCCCCCC)cc1 stands at -21.1

For reference, reported growth inhibition for O=C(O)c1cc(Cl)ccc1[N+](=O)[O-] stands at 7.65

For reference, reported growth inhibition for CC1OCOC1C1OCOCC1OC(=O)c1ccccc1 (stereo not given) stands at -14.8

For reference, reported growth inhibition for C=C(C)C(=O)OC1CC2(C)OC2CC(OC(C)=O)/C(C)=C/C2OC(=O)C(=C)C21 (stereo not given) stands at 39.5

For reference, reported growth inhibition for COc1cc2c(cc1OC)-c1c(C)c3ccc(OC)c(NCCO)c3c[n+]1CC2 stands at -17

For reference, reported growth inhibition for CCC(C)C/C(C)=N\NC(N)=O (stereo not given) stands at 9.2

For reference, reported growth inhibition for CC(=O)NC(Cc1ccccc1)/C(C)=N\O (stereo not given) stands at -15.2

For reference, reported growth inhibition for CC(C)CN(CC(C)C)/N=C/c1cc([N+](=O)[O-])ccc1O stands at -3.65

For reference, reported growth inhibition for N#CC1=C(c2ccccc2)NN(Cc2ccccc2)C(c2ccc(Cl)cc2)CC1=O (stereo not given) stands at -44.1

For reference, reported growth inhibition for C=CCc1cc(OC)c(O)c(C(=O)OCC)c1 stands at 1.3

For reference, reported growth inhibition for CCOC(=O)c1[nH]n(-c2ccccc2)c(=O)c1/C=N/C(=S)Nc1ccccc1 stands at -11.8

For reference, reported growth inhibition for C=CCSc1ccc(Cl)cc1[N+](=O)[O-] stands at -8.45

For reference, reported growth inhibition for C/C(CC(=O)Nc1cccc([N+](=O)[O-])c1)=N\NC(=O)C[n+]1ccccc1 stands at 19.1

For reference, reported growth inhibition for C/C(=N\NC(N)=O)c1cc2cc([N+](=O)[O-])ccc2oc1=O stands at -7.85

For reference, reported growth inhibition for CN1CCCCC(C#N)(c2ccccc2)CC1 (stereo not given) stands at -2.2

For reference, reported growth inhibition for O=C(CCCCl)CCCCl stands at 12.6

For reference, reported growth inhibition for CC(=O)NNc1nc(C)c(C(/C=C/c2ccc([N+](=O)[O-])cc2)=N/N)s1 stands at 17.4

For reference, reported growth inhibition for Cc1ccc(C(=O)OC2CCCC2)cc1 stands at -7.7

For reference, reported growth inhibition for CCCCSc1nc2c(=O)[nH][nH]c(=O)c2n1Cc1ccccc1 stands at 14.7

For reference, reported growth inhibition for COc1cccc(-c2cc(=O)c3cccc(CC(=O)O)c3o2)c1 stands at 2.85

For reference, reported growth inhibition for COc1ccc(/C=C/C(=O)c2c(-c3ccccc3)nn(C)c(=O)c2N2CCCC2)cc1 stands at -24.4

For reference, reported growth inhibition for Cc1ccc(S(=O)(=O)N/N=C2\CCC3CC2C3(C)C)cc1 (stereo not given) stands at -20.1

For reference, reported growth inhibition for CCCCNC(N)=O stands at -37.9

For reference, reported growth inhibition for CCCC(=O)OCc1ccc(Cl)cc1 stands at 5.15

###

test: NCI Yeast Anticancer Drug Screen. Data for the mlh1 rad18 strain (AID 175); conditions: S. cerevisiae mlh1 rad18 strain growth inhibition; at 50.0 µM; stronger effect = higher value
The panel holds about 79,000 compounds, 15% with a hit somewhere; the sample as a whole holds those more often. Active and inactive are the calls of the source. No stated cut-off is given here; in the data, active means growth inhibition above about 70%; inactive means the rest.
I'd be grateful if you could share measured growth inhibition for these entries.

For reference, reported growth inhibition for COc1cc(C(=O)O)cc(O)c1OC stands at 8.45% (inactive)

For reference, reported growth inhibition for OC1OC2COC(c3ccccc3)OC2C(O)C1O (centres undefined) stands at -20.9% (inactive)

For reference, reported growth inhibition for NCCNC(=O)Cc1cccc2ccccc12 stands at -3.05% (inactive)

For reference, reported growth inhibition for CS(=O)(=O)N1CC(CCl)c2ccc(NO)cc21 (centres undefined) stands at -32.4% (inactive)

###

assay: NCI Yeast Anticancer Drug Screen. Data for the bub3 strain (AID 167); conditions: S. cerevisiae bub3 mutant strain, at 50.0 µM
About 79,000 compounds went through this panel and 15% of them were active in at least one assay; those are over-represented in the sample as a whole. Activity calls are given as the source filed them. Rule as the data show it: active = growth inhibition above about 70%; inactive = the rest.
Write down the outcome that applies. Available outcomes: active, inactive

Prompt line: State the result this test recorded for Cc1cc(C)[n+]([O-])c(C)c1 .
Response line: inactive

Prompt line: State the result this test recorded for O=C(Cc1ccccc1)NCc1ccccc1 .
Response line: inactive

Prompt line: State the result this test recorded for CC12C3CC4C5CC(C(C53)[C@@H]1NCc1ccccc1)C42 (stereo partly specified) .
Response line: inactive

Prompt line: State the result this test recorded for CC[n+]1c([S-])nn(C)c1-c1cnccn1 .
Response line: inactive

Prompt line: State the result this test recorded for CC(=O)NNc1nc(C)c(C(=O)NNC(=O)C(=O)Nc2c(Cl)cc([N+](=O)[O-])cc2Cl)s1 .
Response line: inactive

Prompt line: State the result this test recorded for Cc1ccn2c(CCc3nnc4cc(C)ccn34)nnc2c1 .
Response line: inactive

Prompt line: State the result this test recorded for COc1ccc(N=C2[Se]C(=NC(=O)c3ccccc3)N(c3ccc(OC)cc3)C2=Nc2ccc(OC)cc2)cc1 .
Response line: inactive

Prompt line: State the result this test recorded for N#Cc1cc([N+](=O)[O-])ccc1NC(=O)C(=O)C(C(=O)c1ccc2ccccc2c1)C1OCc2ccccc21 (stereo unspecified) .
Response line: inactive

Prompt line: State the result this test recorded for O=[n+]1c2ccccc2n([O-])c2cn(-c3ccccc3)c(-c3ccccc3)c21 .
Response line: inactive

Prompt line: State the result this test recorded for CC(C#N)Nc1ccc(Oc2ccc(C(C)(C)c3ccc(Oc4ccc(NC(C)C#N)cc4)cc3)cc2)cc1 (stereo unspecified) .
Response line: inactive

Prompt line: State the result this test recorded for Clc1cnnc2nc[nH]c12 .
Response line: inactive

Prompt line: State the result this test recorded for CCSCCC(Nc1ncnc2nc[nH]c12)C(=O)O (stereo unspecified) .
Response line: inactive

Prompt line: State the result this test recorded for O=C1CC=NC(=S)N1 .
Response line: inactive

Prompt line: State the result this test recorded for OCC1SC(O)C(O)C(O)C1O (stereo unspecified) .
Response line: inactive

Prompt line: State the result this test recorded for O=C(CCN1CCCCC1)c1cc(Cl)ccc1Cl .
Response line: active

Prompt line: State the result this test recorded for Cc1ccc(NCCN)c2c(=O)c3cc(O)ccc3sc12 .
Response line: inactive
